Tested on: High Density cholesterol (Chl Large) plaque particles
Assay: Mass spectroscopy proteomics, semi-quantitative binding affinity of serum proteins (plaqueproteome, Table 2)
Set-up: species or system human
Settings: higher number = stronger affinity
What Semi-quantitative analysis of proteins binding to different plaque particles: Chl Large was measured for each of the following?
No unit in the answer, please; the number alone is enough.

The molecule identified as Thioredoxin (protein) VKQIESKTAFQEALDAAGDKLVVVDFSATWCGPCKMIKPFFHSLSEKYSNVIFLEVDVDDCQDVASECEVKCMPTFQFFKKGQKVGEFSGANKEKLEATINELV registered its Semi-quantitative analysis of proteins binding to different plaque particles: Chl Large at 0

Note to self: Semi-quantitative analysis of proteins binding to different plaque particles: Chl Large recorded for Isoform 2 of Arginase-1 (protein) MSAKSRTIGIIGAPFSKGQPRGGVEEGPTVLRKAGLLEKLKEQVTQNFLILECDVKDYGDLPFADIPNDSPFQIVKNPRSVGKASEQLAGKVAEVKKNGRISLVLGGDHSLAIGSISGHARVHPDLGVIWVDAHTDINTPLTTTSGNLHGQPVSFLLKELKGKIPDVPGFSWVTPCISAKDIVYIGLRDVDPGEHYILKTLGIKYFSMTEVDRLGIGKVMEETLSYLLGRKKRPIHLSFDVDGLDPSFTPATGTPVVGGLTYREGLYITEEIYKTGLLSGLDIMEVNPSLGKTPEEVTRTVNTAVAITLACFGLAREGNHKPIDYLNPPK was 0

Reported Semi-quantitative analysis of proteins binding to different plaque particles: Chl Large for Ig lambda chain V-III region LOI (protein) VTSYVLTQPPSVSVAPGQTARITCGGNNIGSKSVHWYQQKPGQAPVLVVYDDSDRPSGIPERFSGSNSGNTATLTISRVEAGDEADYYCQVWDSSSDHPT was 1

Source of measurements: patent US9618524B2
